system: SNB-78; assay: NCI tumour cell line growth inhibition, 48 h
Active and inactive are the calls of the source. Rule as the data show it: active = GI50 up to about 1.1 µM and inactive = higher.
Collected GI50 values appear next to each entry.
Quantity Name: GI50

compound_string=COc1ccc(C(=O)Cc2ccc(Br)cc2)cc1OC experimental_value="> 100 µM (inactive)"
compound_string=O=c1c2cccnc2ncn1CCN1CCCCC1 experimental_value="> 100 µM (inactive)"
compound_string=O=C1CN=C(c2ccccc2)c2ccncc2N1 experimental_value="> 100 µM (inactive)"

----------
tested on: BT-549; assay: NCI tumour cell line growth inhibition, 48 h
The source made the active and inactive calls. Rule as the data show it: active = GI50 up to about 1.1 µM and inactive = higher.
Labels: active, inactive

molecule=CCc1nc(N)nc(N)c1-c1ccc(N(C)Cc2ccccc2)c([N+](=O)[O-])c1 answer_label=inactive
molecule=CC(C)CC1C(=O)OC(C)(C)OC1=O answer_label=inactive
molecule=O=c1[nH]cc(/N=C/c2cc(Cl)ccc2O)c(=O)[nH]1 answer_label=inactive
molecule=CCCCc1ccc(Nc2cc(=O)n(C)c(=O)[nH]2)cc1 answer_label=inactive
molecule=CCSc1c(C)c2c(n(Cc3ccc(OC)cc3)c1=O)Cc1ccccc1C2 answer_label=inactive
molecule=c1ccc2cc(NCNc3ccc4ccccc4c3)ccc2c1 answer_label=inactive
molecule=CC(C)C[C@H](NC(=O)[C@H](Cc1ccc(F)cc1)NC(=O)c1ccccn1)B(O)O answer_label=active
molecule=N=c1sc(N2CCOCC2)nn1CC(=O)c1ccccc1 answer_label=inactive
molecule="O=C1C(=C(C(F)(F)Cl)C(F)(F)Cl)C2CCC1C2 (stereo unspecified)" answer_label=inactive
molecule=CCCCCCCCCCCCCCCCSS(C)(=O)=O answer_label=inactive
molecule=Clc1ccc(-c2nnc(-c3cccc4ccccc34)o2)cc1Cl answer_label=inactive

----------
test system: BT-549; assay: NCI tumour cell line growth inhibition, 48 h
The source made the active and inactive calls. No stated cut-off is given here; in the data, active = GI50 up to about 1.1 µM and inactive = higher.
Quantity Name: GI50

molecule="COC(=O)Cc1c(-c2c(CC(=O)OC)c3ccccc3n2C2OC(COC(C)=O)C(OC(C)=O)C(OC(C)=O)C2OC(C)=O)[nH]c2ccccc12 (centres undefined)" experimental_value="> 100 µM (inactive)"
molecule=COc1cc(Oc2c(C)c(Cl)c(OC)c(Cl)c2OC)c2c(c1Cl)COC2=O experimental_value="43.6 µM (inactive)"
molecule=N[C@H]1c2c(Br)sc(Br)c2C(=O)[C@H]1O experimental_value="6.3 µM (inactive)"
molecule=C[C@]12CC[C@H](O)C[C@@H]1CC[C@@H]1[C@@H]2CC[C@]2(C)[C@@H](c3cc(C(F)(F)F)[nH]n3)CC[C@@H]12 experimental_value="8.39 µM (inactive)"
molecule=CO/N=C1/c2sccc2[C@H](NC(=O)C(F)(F)F)[C@@H]1O experimental_value="> 100 µM (inactive)"
molecule=CC(C)Oc1cccc(N2C(NCc3c[nH]c4ccccc34)=Nc3ccncc3S2(=O)=O)c1 experimental_value="34.8 µM (inactive)"
molecule=CCOC(=O)Cc1nc2cc(F)c(F)cc2[nH]c1=O experimental_value="> 100 µM (inactive)"
molecule=COC(=O)NC(C(F)(F)F)(C(F)(F)F)P1(=O)OCCCO1 experimental_value="22.1 µM (inactive)"
molecule=Cc1ccsc1/C=N/Nc1ccccn1 experimental_value="> 100 µM (inactive)"

----------
tested on: CAKI-1; assay: NCI tumour cell line growth inhibition, 48 h
Active and inactive are the calls of the source. No stated cut-off is given here; in the data, active = GI50 up to about 1.1 µM and inactive = higher.
Labels: t (active), f (inactive)

compound=Cc1cc(C)nc(NS(=O)(=O)c2ccc(NC(=O)COC(=O)c3cccc4c(=O)c5ccccc5[nH]c34)cc2)n1 tested_target=CAKI-1 answer_label=f
compound=CCN(CC)Cc1nc2sc3c(c2c(=O)n1-c1ccccc1)CCCC3 tested_target=CAKI-1 answer_label=f
compound=CN(C)C(=N)NC(=S)N(C)C tested_target=CAKI-1 answer_label=f
compound=COc1ccc(-c2nc(Sc3c([N+](=O)[O-])ncn3C)n[nH]2)cc1 tested_target=CAKI-1 answer_label=f
compound="CC(=O)OC[C@]1(C)CCCC2(C)C1CCC1C=C(C)[C@H]3CCC12C3 (stereo partly specified)" tested_target=CAKI-1 answer_label=f
compound=CNCCNc1ccc2c3c(nn2CCNCCO)-c2c(O)ccc(O)c2C(=O)c13 tested_target=CAKI-1 answer_label=t
compound=COc1cccc(OC)c1C(=O)OCc1ccccc1 tested_target=CAKI-1 answer_label=f
compound="Cc1ccc(S(=O)ON2CCC(C(=O)O)(c3ccccc3)CC2)cc1 (stereo unspecified)" tested_target=CAKI-1 answer_label=f
compound=CC(C)(C)c1cc2c3c(c1)C(C(F)(F)F)(C(F)(F)F)O[Te]3(C)OC2(C(F)(F)F)C(F)(F)F tested_target=CAKI-1 answer_label=f
compound="N#CCN(CC#N)C1CC=CCC1N(CC#N)CC#N (stereo unspecified)" tested_target=CAKI-1 answer_label=f
compound=CCOc1nc2c(N3CCCC3)nc(N3CCNCC3)nc2nc1NCc1ccccc1 tested_target=CAKI-1 answer_label=f
